Origin of measurements: PubChem BioAssay AID1159580

# procedure-text: chemical genetic growth profiling, strain panel (AID 1159580);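 further: tested at 20 µM; growth read once vehicle control cultures reached saturation at 30 °C; 1 = growth at the plate median or of vehicle wells; lower values mean less growth of the strain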
# assay-setup: S. cerevisiae deletion strains, growth OD, locus YLR027C, strain aat2, active compounds read low
Among all 5,500 compounds or so, about 2,000 (36%) were called active. Inconclusive results (about 18%) are left out. Some of the results follow.
Catalogue of normalized growth readings, one per entry.
readout: normalized growth

>>> print(df.to_string())
                    structure_smiles_string            readout            result
0  Cc1ccc(-c2cc(C(F)(F)F)nn2-c2ccc(S(N)(=O)=O)cc2)cc1  normalized growth   1.02 (inactive)
1                     Cc1cc(O)cc(O)c1C(=O)O  normalized growth   1.03 (inactive)
2                          Cc1cc(O)cc(=O)o1  normalized growth   1.01 (inactive)
3              CC1=NS(=O)(=O)c2cc(Cl)ccc2N1  normalized growth  0.975 (inactive)

* * *

# procedure-text: chemical genetic growth profiling, strain panel (AID 1159580)
# assay-setup: S. cerevisiae deletion strains, growth OD, locus YJL187C, strain SWE1 (second series)
Out of some 5,500 compounds screened, about 2,000 (36%) were called active. Roughly 18% stayed inconclusive and do not appear here. Rule as the data show it: active = normalized growth mostly below about 0.91 (no sharp cut-off); inconclusive = no clear call, values can overlap the other calls; inactive = mostly above about 0.92. The list shows a part of the results.
Outcomes: active, inactive

compound	label
COc1cc(C(=O)O[C@H]2CC[C@@]3(C)[C@@H]4CC[C@H]5[C@]6(O)C[C@H](O)[C@@]7(O)[C@@H](CN8C[C@@H](C)CC[C@H]8[C@@]7(C)O)[C@]6(O)C[C@@]53O[C@]24O)cc(OC)c1OC	inactive
C/C=C(/C)C(=O)O[C@H]1CC[C@@]2(C)[C@@H]3CC[C@H]4[C@]5(O)C[C@H](O)[C@@]6(O)[C@@H](CN7C[C@@H](C)CC[C@H]7[C@@]6(C)O)[C@]5(O)C[C@@]42O[C@]13O	inactive
C=C/C(C)=C\CC1C(C)(O)CCC2C(C)(C)CCCC21C (stereo unspecified)	active
CC(=O)O[C@H]1CC[C@@]2(C)C(CC[C@]3(C)C2C(=O)C=C2C4[C@@H](C)[C@H](C)CC[C@]4(C(=O)O)CC[C@]23C)C1(C)C (stereo partly specified)	inactive
CC(=O)O[C@@H]1CC[C@@]2(C)C(CC[C@]3(C)C2CC=C2C4CC(C)(C)CC[C@]4(C(=O)O)CC[C@]23C)C1(C)C (stereo partly specified)	inactive
COc1ccc2[nH]cc(CCN)c2c1	inactive
Clc1ccccc1C(c1ccccc1)(c1ccccc1)n1ccnc1	active
Cc1cc(C(C)(C)C)c(O)c(C(C)(C)C)c1	inactive
CCC(C)C(NC)C(=O)O (stereo unspecified)	inactive
N=C(N)c1ccc(OCCCCCOc2ccc(C(=N)N)cc2)cc1	inactive
CC(=O)OC1CC[C@@]2(C)C(CC[C@]3(C)C2CCC2C4CC(C)(C)CCC4(C(=O)O)CC[C@]23C)C1(C)C (stereo partly specified)	inactive
Nc1c2ccccc2nc2ccccc12	active
O=c1oc2cc(O)ccc2s1	inactive
CCOC(=O)OC(C)OC(=O)C1N2C(=O)C(NC(=O)[C@H](N)c3ccccc3)C2SC1(C)C (stereo partly specified)	inactive
C[C@@H]1OC(O[C@H]2[C@H](O)[C@@H](O)[C@H](OC[C@H]3O[C@@H](OC(=O)[C@]45CCC(C)(C)CC4C4=CCC6[C@@]7(C)CC[C@H](OC8OC[C@H](O)[C@H](O)[C@H]8OC8O[C@@H](C)[C@H](O)[C@@H](O)[C@H]8O)[C@@](C)(CO)C7CC[C@@]6(C)[C@]4(C)CC5)[C@H](O)[C@@H](O)[C@@H]3O)O[C@@H]2CO)[C@H](O)[C@H](O)[C@H]1O (stereo partly specified)	inactive
CC(=O)Nc1ccc(OCC(O)CNC(C)C)cc1 (stereo unspecified)	inactive

* * *

# procedure-text: chemical genetic growth profiling, strain panel (AID 1159580);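 further: tested at 20 µM; growth read once vehicle control cultures reached saturation at 30 °C; 1 = growth at the plate median or of vehicle wells; lower values mean less growth of the strain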
# assay-setup: S. cerevisiae deletion strains, growth OD, locus YMR205C, strain PFK2 (second series), active compounds read low
The campaign covered roughly 5,500 compounds. About 2,000 (36%) were called active. Another 18% or so got no clear call; they are omitted. The list shows a part of the results.
normalized growth values for the molecules below.
readout: normalized growth

                                    molecule            readout  quantitative_result
 0       CCCc1nc(-c2ccccn2)[nH]c(=O)c1CC1CC1  normalized growth                0.939
 1  Cc1ccc(S(=O)(=O)n2c(Sc3ccc([N+](=O)[O-])cc3[N+](=O)[O-])nc3cc(C)ccc32)cc1  normalized growth                0.947
 2          Clc1ccc2c(c1)c1ccccc1n2CN1CCOCC1  normalized growth                0.757
 3     Cc1csc(NC(=O)Nc2ccc(C(F)(F)F)cc2)c1Cl  normalized growth                0.833
 4        Cc1nc(-c2ccccn2)nc(SCc2ccccc2)c1Cl  normalized growth                0.864
 5  COc1cccc(NC(=S)NC2CC(C)CC(C)(C)C2)c1 (stereo unspecified)  normalized growth                    1
 6  Cc1oc(C(C)(C)C)cc1-c1cc(N)n(-c2ccc(I)cc2)n1  normalized growth                 0.94
 7        S=C(Nc1ccc(Cl)cc1)SCc1c(Cl)cccc1Cl  normalized growth                0.987
 8         C=CCc1c(CCC)nc(-c2ccccn2)[nH]c1=O  normalized growth                0.901
 9  Cc1nc(-c2ccccn2)[nH]c(=O)c1Cc1c(Cl)cccc1Cl  normalized growth                0.876
10             Nc1ccc(Sc2ccccc2)nc1Sc1ccccc1  normalized growth                0.938
11  Fc1cccc(Cl)c1CSc1n[nH]c(-c2cc(C(F)(F)F)cc(C(F)(F)F)c2)n1  normalized growth                0.937
12  Fc1ccc(NC(=S)N2CCCN(Cc3ccc(Cl)cc3Cl)CC2)cc1  normalized growth                0.994
13  O=C(N/N=C\c1cc(Br)ccc1O)c1ccccc1Oc1ccccc1  normalized growth                0.919
14        Cc1nc(-c2cccnc2)nc(NCc2ccccc2)c1Cl  normalized growth                0.897
15  CSc1n[nH]c(-c2cc(C(F)(F)F)cc(C(F)(F)F)c2)n1  normalized growth                0.925

* * *

# procedure-text: chemical genetic growth profiling, strain panel (AID 1159580);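 further: tested at 20 µM; growth read once vehicle control cultures reached saturation at 30 °C; 1 = growth at the plate median or of vehicle wells; lower values mean less growth of the strain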
# assay-setup: S. cerevisiae deletion strains, growth OD, locus YJL187C, strain SWE1 (second series), active compounds read low
In all, about 5,500 compounds went through this assay and about 2,000 (36%) were called active. Inconclusive results (about 18%) are left out. Some of the results follow.
readout: normalized growth

>>> df
                                   molecule  quantitative_result
0  C#C[C@]1(O)CCC2C3CCC4=CC(=O)CC[C@@H]4C3CC[C@@]21CC (some centres not stated)                0.988
1  C#C[C@]1(OC(C)=O)CCC2C3CCC4=CC(=O)CC[C@@H]4C3CC[C@@]21C (some centres not stated)                0.961
2  COc1cccc(OC)c1OCCNCC1COc2ccccc2O1 (configuration not stated)                 1.02
3                   O=c1[nH]cc(F)c(=O)[nH]1                0.722
4  CO[C@@]12[C@@H]3NC3CN1C1=C(C(=O)C(N)=C(C)C1=O)[C@@H]2COC(N)=O (some centres not stated)                 1.01
5  CC1(C)CC[C@]2(C)CC[C@]3(C)C(=CCC4[C@@]5(C)CC[C@H](O)C(C)(C)C5CC[C@]43C)C2C1 (some centres not stated)                0.997
6       Nc1ccc(S(=O)(=O)Nc2cnc3ccccc3n2)cc1                0.964

* * *

# procedure-text: chemical genetic growth profiling, strain panel (AID 1159580);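 further: tested at 20 µM; growth read once vehicle control cultures reached saturation at 30 °C; 1 = growth at the plate median or of vehicle wells; lower values mean less growth of the strain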
# assay-setup: S. cerevisiae deletion strains, growth OD, locus YIL147C, strain SLN1, active compounds read low
The whole screen tested about 5,500 compounds, of which about 2,000 (36%) were called active. Not shown: some 18% with an inconclusive outcome. Some of the results follow.
readout: normalized growth

                                   compound  quantitative_result
0          O=C(NCCc1ccncc1)c1ccc(Cl)c(Cl)c1                0.986
1        Cc1nc(-c2cccnc2)nc(NCc2ccccc2)c1Cl                0.929
2             Nc1ccc(Sc2ccccc2)nc1Sc1ccccc1                0.962
3  O=C(Nc1ccccc1Sc1ccc([N+](=O)[O-])cc1[N+](=O)[O-])C(Cl)(Cl)Cl                0.972
4  O=C(NCC1COc2ccccc2O1)c1ccc(Cl)cc1 (stereo not drawn)                0.929
5     Cc1nc(-c2ccccn2)nc(N(C)Cc2ccccc2)c1Cl                0.952
6        Cc1nc(-c2ccccn2)nc(SCc2ccccc2)c1Cl                0.935
7  O=[N+]([O-])c1ccc(S(=O)(=O)c2ccccc2)nc1S(=O)(=O)c1ccccc1                0.974
